Values compiled from paper PMC6384758.

experiment: Pharmacokinetic study in rats after oral administration of Z. nitidum decoction (HPLC-MS/MS); assay type: in vivo, Sprague–Dawley rats; conditions: Sprague-Dawley; rat plasma, oral Z. nitidum decoction 5.4 mL kg−1, Mean ± SD, n = 6; read-out: AUC0-t
measured.metric: AUC(0-t) (ng·h/mL)
Answers are plain numbers, in ng·h/mL.

Data request: Look up AUC(0-t) for this compound: COc1ccc2c(c1O)-c1c(O)c(OC)cc3c1[C@H](C2)[N+](C)(C)CC3 [Magnoflorine, magnoflorine]
Data returned: 408

* * *

assay: Pharmacokinetic study in rats after oral administration of Z. nitidum decoction (HPLC-MS/MS); format: in vivo, Sprague–Dawley rats; conditions: Sprague-Dawley, rat, in vivo, po
measured.metric: Tmax (min)
Give bare numbers, in min.

Data request: Look up Tmax for this compound: COc1ccc2c(OC)c3ccoc3nc2c1OC
Data returned: 22.8

* * *

test: Pharmacokinetic study in rats after oral administration of Z. nitidum decoction (HPLC-MS/MS); type: in vivo, Sprague–Dawley rats; details: Sprague-Dawley; rat plasma, oral Z. nitidum decoction 5.4 mL kg−1, Mean ± SD, n = 6; read-out: T1/2 (converted)
measured.metric: half-life

Data request: Look up half-life for this compound: COc1ccc2c(c1O)-c1c(O)c(OC)cc3c1[C@H](C2)[N+](C)(C)CC3
Data returned: 3.24 h

* * *

experiment: Pharmacokinetic study in rats after oral administration of Z. nitidum decoction (HPLC-MS/MS); assay type: in vivo, Sprague–Dawley rats; conditions: Sprague-Dawley, in vivo; rat plasma, oral Z. nitidum decoction 5.4 mL kg−1, Mean ± SD, n = 6; read-out: T1/2 (converted)
measured.metric: half-life

Data request: Look up half-life for this compound: COc1ccc2c(c1OC)CN(C)CCc1cc3c(cc1C(=O)C2)OCO3 [α-allocryptopine]
Data returned: 46.8 min

* * *

assay: Pharmacokinetic study in rats after oral administration of Z. nitidum decoction (HPLC-MS/MS); format: in vivo, Sprague–Dawley rats; details: Sprague-Dawley, in vivo; rat plasma, oral Z. nitidum decoction 5.4 mL kg−1, Mean ± SD, n = 6; read-out: Tmax
measured.metric: Tmax (min)
Give bare numbers, in min.

Data request: Look up Tmax for this compound: COc1ccc2c(c1OC)CN(C)CCc1cc3c(cc1C(=O)C2)OCO3
Data returned: 28.2

* * *

experiment: Pharmacokinetic study in rats after oral administration of Z. nitidum decoction (HPLC-MS/MS); assay type: in vivo, Sprague–Dawley rats; conditions: Sprague-Dawley, in vivo; rat plasma, oral Z. nitidum decoction 5.4 mL kg−1, Mean ± SD, n = 6; read-out: AUC0-t
measured.metric: AUC(0-t)
Please don't drop the unit; write it after the number.

Data request: Look up AUC(0-t) for this compound: COc1ccc2c(c1OC)CN(C)CCc1cc3c(cc1C(=O)C2)OCO3
Data returned: 180 ng·h/mL

* * *

test: Pharmacokinetic study in rats after oral administration of Z. nitidum decoction (HPLC-MS/MS); format: in vivo, Sprague–Dawley rats; conditions: Sprague-Dawley, rat, in vivo, po
measured.metric: AUC(0-inf) (ng·h/mL)
One number for each entry, in ng·h/mL.

Data request: Look up AUC(0-inf) for this molecule: COc1ccc2c(OC)c3ccoc3nc2c1OC [Skimmianine, skimmianine]
Data returned: 17.1

* * *

assay: Pharmacokinetic study in rats after oral administration of Z. nitidum decoction (HPLC-MS/MS); format: in vivo, Sprague–Dawley rats; conditions: Sprague-Dawley, rat, in vivo, po
measured.metric: AUC(0-t) (ng·h/mL)
Numbers only, in ng·h/mL.

Data request: Look up AUC(0-t) for this molecule: COc1ccc2c(OC)c3ccoc3nc2c1OC
Data returned: 11.1
